# study-target: UniProt P08908
# experiment-description: Displacement of [3H]8-OH-DPAT from human recombinant 5HT1A receptor expressed in CHO cells
reported-property: pKi
Quick note: pKi values are minus log10 of concentrations in mol/L.

>>> data_value("CN1[C@H]2Cc3cc4c(cc3[C@@H]1Cc1cc3c(cc12)OCO3)OCO4")
5.22

pKi for COc1cc2c(cc1O)C[C@H]1c3c(cc(OC)c(OC)c3-2)CCN1C ? 7.07

###

List of pEC50 values.
# study-target: 5-hydroxytryptamine receptor 1A (Homo sapiens, UniProt P08908)
# Sequence (P08908 whole entry): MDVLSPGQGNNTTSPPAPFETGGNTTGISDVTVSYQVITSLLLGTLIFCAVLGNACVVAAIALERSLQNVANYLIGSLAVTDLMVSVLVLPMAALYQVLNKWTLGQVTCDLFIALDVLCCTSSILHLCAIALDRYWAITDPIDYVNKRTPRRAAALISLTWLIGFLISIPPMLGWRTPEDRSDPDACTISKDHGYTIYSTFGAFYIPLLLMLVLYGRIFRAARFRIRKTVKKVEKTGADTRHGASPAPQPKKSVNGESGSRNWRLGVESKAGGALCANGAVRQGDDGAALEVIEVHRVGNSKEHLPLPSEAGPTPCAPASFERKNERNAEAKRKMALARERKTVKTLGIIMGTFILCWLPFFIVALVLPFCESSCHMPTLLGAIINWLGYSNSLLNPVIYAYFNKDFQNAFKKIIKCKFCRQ
# experiment-description: Displacement of [3H]8-OH-DPAT from human recombinant 5HT1A receptor expressed in CHO cells
# Type: cell-based
pEC50: −log10 of the molar value.

>>> data_value("O=c1c(O)c(-c2ccc(O)c(O)c2)oc2cc(O)cc(O)c12 [QUERCETIN]")
"< 4.00"

Recorded pEC50 of CN1CCc2cc3c(cc2C(=O)Cc2ccc4c(c2C1)OCO4)OCO3 [PROTOPINE] , please. < 4.00

Return reported pEC50; argument: C[N+]1(C)[C@H]2Cc3cc4c(cc3[C@@H]1Cc1cc3c(cc12)COC3)OCO4 [CALIFORNIDINE] < 4.00
